Readings of TG loss (%) for the listed molecules
- METHOD_DESCRIPTION: Initial values of TG loss and related substances before treatment
- Assay type: physicochemical
- STATED_CONDITIONS: initial value before treatment; TG room temperature to 105° C.
Reply numerically in %, unit not repeated.

Please review the following examples before continuing.
molecule=C/C(=N\NC(=S)Nc1cccc(C(=O)O)c1)c1csc(-c2ccc(C(C)(C)C)cc2)c1O.NC(CO)(CO)CO measurement=0.11
molecule=C/C(=N\NC(=S)Nc1cccc(C(=O)[O-])c1)c1csc(-c2ccc(C(C)(C)C)cc2)c1O.C[N+](C)(C)CCO measurement=1.19
molecule=C/C(=N\NC(=S)Nc1cccc(C(=O)O)c1)c1csc(-c2ccc(C(C)(C)C)cc2)c1O.NCCO measurement=0.64

Proceeding to the next molecule to report its TG loss (%).
# input molecule: C/C(=N\NC(=S)Nc1cccc(C(=O)[O-])c1)c1csc(-c2ccc(C(C)(C)C)cc2)c1O.[K+] [(4), reference compound] ; wanted: its TG loss (%)
3.18

Data provenance is patent US8946286B2.
